Here the recorded shrunken log2 fold change is given for each entry.
System: Escherichia coli TOP10;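 note: peptides expressed intracellularly from a pBAD plasmid library in pooled LB shake-flask culture, induced with 0.3% L-arabinose, DNA abundance read by NGS, three biological replicates, DESeq2 with apeglm shrinkage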
assay.protocol: shrunken log2 fold change of peptide-encoding DNA abundance (4.5 h post-induction vs induction); higher = less antimicrobial activity (less host growth inhibition)
test.settings: time post-induction: 4.5 h; library: site-saturation at positions 5, 18, 19, 20
quantity.measured: shrunken log2 fold change

INSERT INTO measurements (chain_sequence, quantity_measured, recorded_value) VALUES
  ('RRIRCRPPRLPRPRPRPVREPRP', 'shrunken log2 fold change', 0.386),
  ('RRIRTRPPRLPRPRPRPMCVPRP', 'shrunken log2 fold change', 0.103),
  ('RRIRERPPRLPRPRPRPVYFPRP', 'shrunken log2 fold change', -0.207),
  ('RRIRQRPPRLPRPRPRPLDTPRP', 'shrunken log2 fold change', -0.144),
  ('RRIRWRPPRLPRPRPRPQEVPRP', 'shrunken log2 fold change', -0.0144);
